Target Entity: recombinant rat GluN1/GluN2C (Rattus norvegicus, UniProt Q00961)
Construct: expressed in transfected cells; host or cells: Xenopus laevis oocytes (Ecocyte) injected with in vitro transcribed cRNA
Sequence (Q00961 20-1237, other chains not shown): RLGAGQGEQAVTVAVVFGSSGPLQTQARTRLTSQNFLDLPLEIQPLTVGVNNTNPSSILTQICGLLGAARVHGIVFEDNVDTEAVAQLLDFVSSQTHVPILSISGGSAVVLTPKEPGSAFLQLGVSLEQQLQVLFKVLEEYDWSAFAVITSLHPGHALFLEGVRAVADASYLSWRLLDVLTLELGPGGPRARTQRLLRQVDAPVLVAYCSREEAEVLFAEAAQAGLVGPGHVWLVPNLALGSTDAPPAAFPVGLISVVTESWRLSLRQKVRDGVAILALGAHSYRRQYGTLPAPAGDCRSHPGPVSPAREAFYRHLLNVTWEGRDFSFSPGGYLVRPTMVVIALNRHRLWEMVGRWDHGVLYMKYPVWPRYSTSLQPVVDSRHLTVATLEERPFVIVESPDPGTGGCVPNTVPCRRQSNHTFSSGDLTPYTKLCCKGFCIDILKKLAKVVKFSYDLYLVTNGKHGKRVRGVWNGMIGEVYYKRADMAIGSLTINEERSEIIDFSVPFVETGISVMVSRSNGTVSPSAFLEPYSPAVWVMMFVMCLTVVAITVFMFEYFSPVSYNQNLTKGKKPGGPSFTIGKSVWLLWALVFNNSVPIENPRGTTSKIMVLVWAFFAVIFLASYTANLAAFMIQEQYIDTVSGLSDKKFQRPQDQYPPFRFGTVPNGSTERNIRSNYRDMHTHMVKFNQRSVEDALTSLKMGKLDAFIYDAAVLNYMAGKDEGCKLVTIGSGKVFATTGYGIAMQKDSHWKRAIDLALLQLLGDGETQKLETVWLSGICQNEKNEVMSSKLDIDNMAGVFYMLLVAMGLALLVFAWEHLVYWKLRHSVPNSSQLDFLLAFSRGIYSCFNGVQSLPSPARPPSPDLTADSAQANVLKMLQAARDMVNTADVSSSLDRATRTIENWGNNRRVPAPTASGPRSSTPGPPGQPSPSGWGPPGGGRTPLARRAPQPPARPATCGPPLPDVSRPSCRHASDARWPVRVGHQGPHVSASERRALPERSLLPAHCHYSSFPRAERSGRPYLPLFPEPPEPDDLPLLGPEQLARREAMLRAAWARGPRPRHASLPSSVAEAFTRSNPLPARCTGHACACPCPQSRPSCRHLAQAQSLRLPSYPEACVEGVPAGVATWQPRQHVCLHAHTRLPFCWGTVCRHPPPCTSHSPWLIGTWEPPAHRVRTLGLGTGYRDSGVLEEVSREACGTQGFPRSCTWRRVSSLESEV
Procedure Summary: Two-electrode voltage-clamp (TEVC) recordings in Xenopus laevis oocytes, GluN1/GluN2C
Format: cell-based
Condition Info: Tables 11-13; read-out: EC50 & Max Effect: 2C
Recorded Metric: pEC50
# reply with the number alone; pEC50 is -log10 of concentration in mol/L

Query: Recorded pEC50 for COc1ccc(OCC2c3ccc(OC(C)C)cc3CCN2C(=S)c2cccc(Cl)c2)cc1 (racemic) [1180-163] , please?
Result: 6.37

---

Target Entity: recombinant rat GluN1/GluN2B (Rattus norvegicus, UniProt Q00960)
Construct: expressed in transfected cells; host or cells: Xenopus laevis oocytes (Ecocyte) injected with in vitro transcribed cRNA
Sequence (Q00960 27-1482, other chains not shown): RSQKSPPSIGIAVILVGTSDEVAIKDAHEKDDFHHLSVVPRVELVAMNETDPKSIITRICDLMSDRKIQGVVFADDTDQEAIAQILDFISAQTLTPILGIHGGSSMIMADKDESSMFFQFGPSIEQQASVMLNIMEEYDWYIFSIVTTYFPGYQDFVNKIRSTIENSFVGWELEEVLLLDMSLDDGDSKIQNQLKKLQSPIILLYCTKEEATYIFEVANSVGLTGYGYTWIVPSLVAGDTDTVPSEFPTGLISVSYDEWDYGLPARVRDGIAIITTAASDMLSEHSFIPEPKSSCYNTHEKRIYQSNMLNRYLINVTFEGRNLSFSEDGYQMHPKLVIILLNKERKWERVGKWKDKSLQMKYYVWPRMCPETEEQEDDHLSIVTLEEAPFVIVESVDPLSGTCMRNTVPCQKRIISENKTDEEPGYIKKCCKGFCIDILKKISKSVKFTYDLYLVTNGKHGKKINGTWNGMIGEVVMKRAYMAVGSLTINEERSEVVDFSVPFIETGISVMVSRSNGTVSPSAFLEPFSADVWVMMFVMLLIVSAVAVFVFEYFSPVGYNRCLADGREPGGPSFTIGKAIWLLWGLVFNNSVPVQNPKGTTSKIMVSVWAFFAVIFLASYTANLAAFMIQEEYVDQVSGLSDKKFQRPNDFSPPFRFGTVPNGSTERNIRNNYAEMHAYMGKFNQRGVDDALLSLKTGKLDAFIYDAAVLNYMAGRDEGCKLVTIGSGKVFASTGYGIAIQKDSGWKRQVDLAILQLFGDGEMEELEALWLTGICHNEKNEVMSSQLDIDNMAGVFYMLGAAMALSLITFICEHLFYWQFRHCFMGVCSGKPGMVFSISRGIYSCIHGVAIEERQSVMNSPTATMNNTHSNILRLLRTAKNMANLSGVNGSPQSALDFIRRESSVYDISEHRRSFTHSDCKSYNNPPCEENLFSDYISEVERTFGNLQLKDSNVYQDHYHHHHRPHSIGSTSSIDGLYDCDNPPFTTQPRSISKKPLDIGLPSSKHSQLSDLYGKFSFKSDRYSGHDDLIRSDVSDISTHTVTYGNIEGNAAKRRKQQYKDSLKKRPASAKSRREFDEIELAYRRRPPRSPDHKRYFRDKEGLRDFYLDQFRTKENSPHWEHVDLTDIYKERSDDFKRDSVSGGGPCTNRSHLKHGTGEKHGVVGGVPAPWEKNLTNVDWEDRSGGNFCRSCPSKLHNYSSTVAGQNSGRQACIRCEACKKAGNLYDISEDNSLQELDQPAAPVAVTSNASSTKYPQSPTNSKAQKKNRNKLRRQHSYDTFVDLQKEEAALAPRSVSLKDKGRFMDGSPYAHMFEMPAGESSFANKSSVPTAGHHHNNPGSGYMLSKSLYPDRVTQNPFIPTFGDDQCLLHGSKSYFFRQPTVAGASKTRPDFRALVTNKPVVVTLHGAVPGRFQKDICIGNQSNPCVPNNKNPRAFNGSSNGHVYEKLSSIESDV
Procedure Summary: Two-electrode voltage-clamp (TEVC) recordings in Xenopus laevis oocytes, GluN1/GluN2B
Assay type: cell-based
Condition Info: 10 μM compound; Table 3
The entries below come with measured I10 μM/Icontrol (mean ± SEM, %) GluN2B values attached.
Respond with the bare value in %.

Reference set (5 entries):
COc1ccc(OC[C@@H]2c3ccc(OC(C)C)cc3CCN2C(=O)c2cccc(Cl)c2)cc1 [(S)-(−)-1180-55]: 269
COc1ccc(OC[C@H]2c3ccc(OC(C)C)cc3CCN2C(=O)c2cccc(Cl)c2)cc1 [(R)-(+)-1180-55]: 150
COc1ccc(OC[C@@H]2c3ccc(OC(C)C)cc3CCN2C(=S)c2cccc(Cl)c2)cc1 [(S)-(−)-1180-163]: 203
COc1ccc(OC[C@H]2c3ccc(OC(C)C)cc3CCN2C(=S)c2cccc(Cl)c2)cc1 [(R)-(+)-1180-163]: 121
COc1ccc(OCC2c3ccc(OC(C)C)cc3CCN2C(=S)c2cccc(Cl)c2)cc1 (racemic): 212

We next turn to a different compound, shown below.
Query: API: value(readout=I10 μM/Icontrol (mean ± SEM, %) GluN2B, system=recombinant rat GluN1/GluN2B (Rattus norvegicus, UniProt Q00960)) for record COc1ccc(OCC2c3ccc(OC(C)C)cc3CCN2C(=O)c2cccc(Cl)c2)cc1 (stereo not drawn)
Result: 191

---

Target Entity: recombinant rat GluN1/GluN2C (Rattus norvegicus)
Construct: expressed in transfected cells; host or cells: Xenopus laevis oocytes (Ecocyte) injected with in vitro transcribed cRNA
Procedure Summary: Two-electrode voltage-clamp (TEVC) recordings in Xenopus laevis oocytes, GluN1/GluN2C
Format: cell-based
Condition Info: 30 μM compound; Tables 5-7
Recorded Metric: I30 μM/Icontrol (mean ± SEM, %) GluN2C
Respond with the bare value in %.

Reference set (5 entries):
CCOc1ccc(OC[C@H]2c3ccc(OC(C)C)cc3CCN2C(=S)c2cccc(F)c2)cc1 [(R)-(+)-1180-154]: 58
CCOc1ccc(OC[C@H]2c3ccc(OC(C)C)cc3CCN2C(=O)c2ccc(Cl)c(Cl)c2)cc1 [(R)-(+)-1180-103]: 92
CCOc1ccc(OC[C@H]2c3ccc(OC(C)C)cc3CCN2C(=O)c2cccc(F)c2)cc1 [(R)-(+)-1180-87]: 103
CCOc1ccc(OC[C@@H]2c3ccc(OC(C)C)cc3CCN2C(=O)c2cccc(C(F)(F)F)c2)cc1 [(S)-(−)-1180-92]: 132
CCOc1ccc(OC[C@@H]2c3ccc(OC(C)C)cc3CCN2C(=O)c2ccc(Cl)c(Cl)c2)cc1 [(S)-(−)-1180-103]: 114

Query: Recorded I30 μM/Icontrol (mean ± SEM, %) GluN2C for CCOc1ccc(OCC2c3ccc(OC(C)C)cc3CCN2C(=S)c2cccc(F)c2)cc1 (racemic) , please?
Result: 166

Query: Recorded I30 μM/Icontrol (mean ± SEM, %) GluN2C for CCOc1ccc(OC[C@@H]2c3ccc(OC(C)C)cc3CCN2C(=O)c2cccc(F)c2)cc1 [(S)-(−)-1180-87] , please?
Result: 131

Query: Recorded I30 μM/Icontrol (mean ± SEM, %) GluN2C for CCOc1ccc(OC[C@H]2c3ccc(OC(C)C)cc3CCN2C(=S)c2cccc(C(F)(F)F)c2)cc1 [(R)-(+)-1180-168] , please?
Result: 146

Query: Recorded I30 μM/Icontrol (mean ± SEM, %) GluN2C for CCOc1ccc(OCC2c3ccc(OC(C)C)cc3CCN2C(=S)c2cccc(C(F)(F)F)c2)cc1 (centres unmarked) , please?
Result: 139

Query: Recorded I30 μM/Icontrol (mean ± SEM, %) GluN2C for CCOc1ccc(OCC2c3ccc(OC(C)C)cc3CCN2C(=O)c2cccc(F)c2)cc1 (centres unmarked) , please?
Result: 103

Query: Recorded I30 μM/Icontrol (mean ± SEM, %) GluN2C for CCOc1ccc(OC[C@@H]2c3ccc(OC(C)C)cc3CCN2C(=S)c2cccc(C(F)(F)F)c2)cc1 [(S)-(−)-1180-168] , please?
Result: 87

Query: Recorded I30 μM/Icontrol (mean ± SEM, %) GluN2C for CCOc1ccc(OC[C@@H]2c3ccc(OC(C)C)cc3CCN2C(=S)c2cccc(F)c2)cc1 [(S)-(−)-1180-154] , please?
Result: 153

Query: Recorded I30 μM/Icontrol (mean ± SEM, %) GluN2C for CCOc1ccc(OC[C@H]2c3ccc(OC(C)C)cc3CCN2C(=O)c2cccc(C(F)(F)F)c2)cc1 [(R)-(+)-1180-92] , please?
Result: 73

Query: Recorded I30 μM/Icontrol (mean ± SEM, %) GluN2C for CCOc1ccc(OCC2c3ccc(OC(C)C)cc3CCN2C(=O)c2ccc(Cl)c(Cl)c2)cc1 (centres unmarked) , please?
Result: 134

---

Target Entity: recombinant rat GluN1/GluN2C (Rattus norvegicus, UniProt P35439+Q00961)
Construct: expressed in transfected cells; host or cells: Xenopus laevis oocytes (Ecocyte) injected with in vitro transcribed cRNA
Sequence (Q00961 20-1237, other chains not shown): as the sequence (Q00961 20-1237, other chains not shown) above
Procedure Summary: Two-electrode voltage-clamp (TEVC) recordings in Xenopus laevis oocytes, GluN1/GluN2C
Format: cell-based
Condition Info: fitted when potentiation at 30 μM exceeded 120%; Tables 3, 5-7; read-out: EC50 (max.) (μM %) GluN2C: fitted EC50
The entries below come with measured EC50 values attached.
Respond with the bare value in µM.

Reference set (3 entries):
CCOc1ccc(OCC2c3ccc(OC(C)C)cc3CCN2C(=S)c2cccc(C(F)(F)F)c2)cc1 (stereo not shown): 0.33
CCOc1ccc(OC[C@@H]2c3ccc(OC(C)C)cc3CCN2C(=S)c2cccc(F)c2)cc1 [(S)-(−)-1180-154]: 0.46
CCOc1ccc(OC[C@@H]2c3ccc(OC(C)C)cc3CCN2C(=O)c2cccc(C(F)(F)F)c2)cc1 [(S)-(−)-1180-92]: 1.2

Query: API: value(readout=EC50, system=recombinant rat GluN1/GluN2C (Rattus norvegicus, UniProt P35439+Q00961)) for record CCOc1ccc(OC[C@H]2c3ccc(OC(C)C)cc3CCN2C(=S)c2cccc(C(F)(F)F)c2)cc1 [(R)-(+)-1180-168]
Result: 0.24

---

The entries below come with measured GluN2C response % at 30 µM values attached.
Target Entity: recombinant rat GluN1/GluN2C (Rattus norvegicus)
Construct: expressed in transfected cells; host or cells: Xenopus laevis oocytes (Ecocyte) injected with in vitro transcribed cRNA
Procedure Summary: Two-electrode voltage-clamp (TEVC) recordings in Xenopus laevis oocytes, GluN1/GluN2C
Format: cell-based
Condition Info: at 30 µM

Reference set (2 entries):
CC(C)Oc1ccc(OCC2c3ccc(OC(C)C)cc3CCN2C(=O)c2cccc(Cl)c2)cc1 (stereo not drawn): 127% at
COc1ccc(OCC2c3cc(OC(=O)c4cccc(Cl)c4)c(OC)cc3CCN2C(=O)C=CC(F)(F)F)cc1 (stereo not drawn): 102 at 30%

We next turn to a different compound, shown below.
Query: Recorded GluN2C response % at 30 µM for COc1ccc(OCC2c3cc(O)c(OC)cc3CCN2C(=O)C=CC(F)(F)F)cc1 (stereo not drawn) , please?
Result: 109 at 30%

---

Target Entity: recombinant rat GluN1/GluN2D (Rattus norvegicus)
Construct: expressed in transfected cells; host or cells: Xenopus laevis oocytes (Ecocyte) injected with in vitro transcribed cRNA
Sequence (Q62645 28-1323, other chains not shown): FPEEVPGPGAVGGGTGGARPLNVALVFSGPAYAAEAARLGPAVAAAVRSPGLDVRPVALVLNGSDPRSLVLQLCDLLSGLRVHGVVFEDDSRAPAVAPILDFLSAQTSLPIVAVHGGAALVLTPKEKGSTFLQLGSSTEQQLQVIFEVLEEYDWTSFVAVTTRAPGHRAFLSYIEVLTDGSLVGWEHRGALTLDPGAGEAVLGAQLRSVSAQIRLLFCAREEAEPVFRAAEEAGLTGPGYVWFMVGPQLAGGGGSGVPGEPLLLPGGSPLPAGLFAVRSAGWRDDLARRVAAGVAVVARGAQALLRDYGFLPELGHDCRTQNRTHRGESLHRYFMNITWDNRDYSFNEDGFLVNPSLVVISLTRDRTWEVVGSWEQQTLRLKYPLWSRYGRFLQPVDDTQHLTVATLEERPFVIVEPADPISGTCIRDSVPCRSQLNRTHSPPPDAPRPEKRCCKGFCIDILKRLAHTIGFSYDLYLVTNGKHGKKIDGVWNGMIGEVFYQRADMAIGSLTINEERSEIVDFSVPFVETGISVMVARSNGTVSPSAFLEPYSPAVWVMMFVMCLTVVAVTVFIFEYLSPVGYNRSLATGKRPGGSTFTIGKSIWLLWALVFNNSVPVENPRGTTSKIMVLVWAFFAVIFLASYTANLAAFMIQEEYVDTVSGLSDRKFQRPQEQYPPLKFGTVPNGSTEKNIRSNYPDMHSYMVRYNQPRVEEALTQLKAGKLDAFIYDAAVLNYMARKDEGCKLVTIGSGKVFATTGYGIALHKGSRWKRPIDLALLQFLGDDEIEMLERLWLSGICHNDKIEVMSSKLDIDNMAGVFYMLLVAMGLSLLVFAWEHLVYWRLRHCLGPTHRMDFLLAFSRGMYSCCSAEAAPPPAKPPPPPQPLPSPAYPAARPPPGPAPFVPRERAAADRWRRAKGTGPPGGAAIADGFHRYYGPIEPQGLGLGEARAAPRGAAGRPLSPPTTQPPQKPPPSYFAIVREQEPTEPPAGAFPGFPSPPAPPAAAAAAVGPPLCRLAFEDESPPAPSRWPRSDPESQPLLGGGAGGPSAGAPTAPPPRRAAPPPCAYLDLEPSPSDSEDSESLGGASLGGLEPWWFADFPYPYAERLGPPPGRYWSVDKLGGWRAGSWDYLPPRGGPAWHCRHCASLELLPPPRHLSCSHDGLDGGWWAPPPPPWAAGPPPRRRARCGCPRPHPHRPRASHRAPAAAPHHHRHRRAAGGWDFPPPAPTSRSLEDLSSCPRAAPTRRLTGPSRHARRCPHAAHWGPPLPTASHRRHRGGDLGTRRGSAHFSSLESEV
Procedure Summary: Two-electrode voltage-clamp (TEVC) recordings in Xenopus laevis oocytes, GluN1/GluN2D
Format: cell-based
Condition Info: 30 μM compound; Tables 5-7
Method: Data are from between 3-26 oocytes from 2-5 frogs for each compound and receptor tested. Two-electrode voltage-clamp recordings were performed in Xenopus laevis oocytes (Ecocyte) expressing recombinant rat GluN1/GluN2A, GluN1/GluN2B, GluN1/GluN2C, GluN1/GluN2D. cRNA was transcribed in vitro (Ambion), diluted with nuclease free water, and injected at a ratio of 1:2 GluN1:GluN2 (5-10 ng total cRNA). […]
The entries below come with measured I30 μM/Icontrol (mean ± SEM, %) GluN2D values attached.
Respond with the bare value in %.

CCOc1ccc(OC[C@@H]2c3ccc(OC(C)C)cc3CCN2C(=S)c2cccc(C(F)(F)F)c2)cc1 [(S)-(−)-1180-168]: 87
CCOc1ccc(OC[C@H]2c3ccc(OC(C)C)cc3CCN2C(=O)c2cccc(C(F)(F)F)c2)cc1 [(R)-(+)-1180-92]: 75

Query: API: value(readout=I30 μM/Icontrol (mean ± SEM, %) GluN2D, system=recombinant rat GluN1/GluN2D (Rattus norvegicus)) for record CCOc1ccc(OC[C@H]2c3ccc(OC(C)C)cc3CCN2C(=O)c2cccc(F)c2)cc1 [(R)-(+)-1180-87]
Result: 86

Query: API: value(readout=I30 μM/Icontrol (mean ± SEM, %) GluN2D, system=recombinant rat GluN1/GluN2D (Rattus norvegicus)) for record CCOc1ccc(OC[C@H]2c3ccc(OC(C)C)cc3CCN2C(=S)c2cccc(C(F)(F)F)c2)cc1 [(R)-(+)-1180-168]
Result: 157

Query: API: value(readout=I30 μM/Icontrol (mean ± SEM, %) GluN2D, system=recombinant rat GluN1/GluN2D (Rattus norvegicus)) for record CCOc1ccc(OC[C@@H]2c3ccc(OC(C)C)cc3CCN2C(=S)c2cccc(F)c2)cc1 [(S)-(−)-1180-154]
Result: 185

Query: API: value(readout=I30 μM/Icontrol (mean ± SEM, %) GluN2D, system=recombinant rat GluN1/GluN2D (Rattus norvegicus)) for record CCOc1ccc(OC[C@@H]2c3ccc(OC(C)C)cc3CCN2C(=O)c2cccc(F)c2)cc1 [(S)-(−)-1180-87]
Result: 119

Query: API: value(readout=I30 μM/Icontrol (mean ± SEM, %) GluN2D, system=recombinant rat GluN1/GluN2D (Rattus norvegicus)) for record CCOc1ccc(OC[C@H]2c3ccc(OC(C)C)cc3CCN2C(=O)c2ccc(Cl)c(Cl)c2)cc1 [(R)-(+)-1180-103]
Result: 93

Reference source: patent US10647679B2
